assay-name: qHTS assay to identify small molecule antagonists of the estrogen receptor alpha (ER-alpha) signaling pathway - cell viability counter screen (AID 743074);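 further: HEK293 cells carrying ER-alpha-UAS-bla reporter stimulated with 17beta-estradiol; nearly all actives have a fitted effect of over 45% in size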
conditions: ERalpha-bla HEK293 viability, CellTiter-Glo luminescence, 18 h; series mostly up to 69.4 µM
Results filed as inconclusive are left out. Activity calls are given as the source filed them. The call rests on the fitted dose curve.
reported-property: outcome

Some compounds with known outcome results, for comparison:
1) C=C1c2c(Cl)ccc(O)c2C(O)=C2C(=O)[C@]3(O)C(O)=C(C(N)=O)C(=O)[C@@H](N(C)C)[C@@H]3[C@@H](O)[C@H]12 : inactive
2) CC(=O)N[C@@H](C=O)[C@@H](O)[C@H](O)[C@H](O)CO : inactive
3) CCC(C)C(C(=O)OCC[N+](C)(CC)CC)c1ccccc1 (stereo not drawn) : inactive
4) CN(C)C(=O)CCSC(SCCC(=O)O)c1cccc(/C=C/c2ccc3ccc(Cl)cc3n2)c1 (stereo not drawn) : inactive
5) CCC[C@@H]1C[C@@H](C(=O)N[C@@H]([C@H]2O[C@H](SC)[C@H](O)[C@@H](O)[C@H]2O)[C@H](C)Cl)N(C)C1 : inactive
6) CN1[C@@H]2CCC[C@H]1CC(NC(=O)c1nn(C)c3ccccc13)C2 (stereo partly drawn) : inactive
7) CCCOc1cc(N)ccc1C(=O)OCCN(CC)CC : inactive

# context switch: different compound, same outcome
Give reported outcome value for C[C@@H]1C[C@H]2[C@@H]3CCC4=CC(=O)C=C[C@]4(C)[C@@]3(F)[C@@H](O)C[C@]2(C)[C@@]1(O)C(=O)COC(=O)c1cccc(S(=O)(=O)O)c1
inactive
